Task for the reader: assign each of the following compounds its reported inhibition.
MEASUREMENT TARGET: Oligo-1,6-glucosidase IMA1 (Saccharomyces cerevisiae S288c) (UniProt P53051)
Sequence (P53051 whole entry): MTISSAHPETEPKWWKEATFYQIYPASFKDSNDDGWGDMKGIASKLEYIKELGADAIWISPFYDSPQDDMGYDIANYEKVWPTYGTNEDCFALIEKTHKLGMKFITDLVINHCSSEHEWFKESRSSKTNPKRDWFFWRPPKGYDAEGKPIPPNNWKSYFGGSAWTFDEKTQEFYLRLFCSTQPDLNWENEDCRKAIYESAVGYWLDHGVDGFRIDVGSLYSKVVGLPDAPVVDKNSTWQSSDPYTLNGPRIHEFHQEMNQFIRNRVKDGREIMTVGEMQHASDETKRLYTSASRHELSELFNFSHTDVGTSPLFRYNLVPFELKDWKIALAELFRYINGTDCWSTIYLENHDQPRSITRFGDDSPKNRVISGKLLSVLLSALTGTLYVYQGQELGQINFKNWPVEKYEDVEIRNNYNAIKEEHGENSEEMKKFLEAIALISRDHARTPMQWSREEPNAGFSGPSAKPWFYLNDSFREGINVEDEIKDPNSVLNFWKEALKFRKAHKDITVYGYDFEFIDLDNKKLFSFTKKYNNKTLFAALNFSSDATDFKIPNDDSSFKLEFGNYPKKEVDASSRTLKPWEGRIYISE
EXPERIMENT: Inhibition of yeast alpha-glucosidase at 1000 uM
Answers are plain numbers, in %.

CCC[C@@H]1NC[C@@H](O)[C@@H](O)[C@H](O)[C@H]1O : 0

For every record below, what is its inhibition?
1. CCC[C@@H]1N[C@@H](CO)[C@@H](O)[C@H](O)[C@H]1O
2. CC[C@H]1NC[C@@H](O)[C@@H](O)[C@H](O)[C@H]1O
3. CC[C@@H]1N[C@@H](CO)[C@@H](O)[C@H](O)[C@H]1O
4. CC[C@@H]1N[C@H](CC)[C@H](O)[C@@H](O)[C@@H]1O

40
0
0
2

Dear reader, for each entry below, please note its inhibition.
1. CC[C@@H]1NC[C@@H](O)[C@@H](O)[C@H](O)[C@H]1O
2. CC[C@H]1N[C@@H](CO)[C@@H](O)[C@H](O)[C@H]1O

23.5
9
